The following compounds are listed with their measured Firefly, cmpd/DMSO repeat 1 values.
# target_or_test_system: NR2F6 (Homo sapiens)
# Construct: expressed in transfected cells; also transient transfection
# assay_protocol: NR2F6 agonist screening, Firefly signal cmpd/DMSO
# Assay type: cell-based
# condition_set: C11 analogs follow set (Tables 2-10), repeat 1

compound: COc1cc(NC(=O)c2ccc3oc(=O)c(S(=O)(=O)c4ccc(C)cc4)cc3c2)cc(OC)c1 [Compound C131]
Firefly, cmpd/DMSO repeat 1: 9.5
//
compound: COc1ccc2oc(=O)c(S(=O)(=O)c3ccc(F)c(Cl)c3)cc2c1 [Compound C158]
Firefly, cmpd/DMSO repeat 1: 1.5
//
compound: Cc1ccc(NC(=O)c2ccc3oc(=O)c(S(=O)(=O)c4ccc(F)cc4)cc3c2)cc1C [Compound C169]
Firefly, cmpd/DMSO repeat 1: 8.8

Lookup result for O=c1oc2ccc(Br)cc2cc1S(=O)(=O)c1ccccc1F [Compound C219] ; measured Firefly, cmpd/DMSO repeat 1: 1.3

* * *

# target_or_test_system: NR2F6 (Homo sapiens, UniProt P10588)
# Construct: expressed in transfected cells; also transient transfection
# Sequence (P10588 1-404): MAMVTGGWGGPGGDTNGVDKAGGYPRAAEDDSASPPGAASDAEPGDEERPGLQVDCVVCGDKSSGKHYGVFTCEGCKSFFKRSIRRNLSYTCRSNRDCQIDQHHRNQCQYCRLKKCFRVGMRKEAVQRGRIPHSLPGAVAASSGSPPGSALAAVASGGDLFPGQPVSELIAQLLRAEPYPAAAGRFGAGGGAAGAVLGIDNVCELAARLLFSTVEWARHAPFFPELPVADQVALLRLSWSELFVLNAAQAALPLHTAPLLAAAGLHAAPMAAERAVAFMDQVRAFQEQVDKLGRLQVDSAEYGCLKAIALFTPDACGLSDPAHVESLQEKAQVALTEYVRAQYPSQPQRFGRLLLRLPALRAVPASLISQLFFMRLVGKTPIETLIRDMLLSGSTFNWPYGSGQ
# assay_protocol: NR2F6 agonist screening, Firefly signal cmpd/DMSO
# Assay type: cell-based
# condition_set: Table 12; repeat 1
Binary call on Firefly, cmpd/DMSO repeat 1: yes from 10 upward, no beneath that.

smiles_data: COc1ccc(S(=O)(=O)c2cc3ccccc3oc2=O)cc1
assigned_label: no

Item `N#Cc1cccc(S(=O)(=O)c2cc3cc(Cl)ccc3oc2=O)c1` with Firefly, cmpd/DMSO repeat 1 of 10 or above?
yes

Please indicate if the recorded Firefly, cmpd/DMSO repeat 1 for `COc1ccc(S(=O)(=O)c2cc3cc(Cl)ccc3oc2=O)cc1OC` meets or exceeds 10.
yes

Could you please find out whether `CCOc1cccc2cc(S(=O)(=O)c3cc(F)cc(F)c3)c(=O)oc12` has Firefly, cmpd/DMSO repeat 1 that meets 10 or exceeds it?
yes

Check the entry `O=c1oc2ccccc2cc1S(=O)(=O)c1ccccc1F` : does Firefly, cmpd/DMSO repeat 1 equal or exceed 10?
no

Does the compound `O=c1oc2ccccc2cc1S(=O)(=O)c1ccc(Br)cc1` have recorded Firefly, cmpd/DMSO repeat 1 that is 10 or more?
yes

Could you please find out whether `COC(=O)c1ccc2oc(=O)c(S(=O)(=O)c3ccc(OC)cc3)cc2c1` has Firefly, cmpd/DMSO repeat 1 that meets 10 or exceeds it?
yes

Quick check, Firefly, cmpd/DMSO repeat 1 >= 10? `CCOc1cccc2cc(S(=O)(=O)c3ccc(OC)c(OC)c3)c(=O)oc12`
no

Identify whether the reported Firefly, cmpd/DMSO repeat 1 of the following compound is 10 or greater: `Cc1ccc(S(=O)(=O)c2cc3cc(Cl)ccc3oc2=O)cc1`
yes

Hi, just wondering whether `Cc1cccc(NC(=O)c2ccc3oc(=O)c(S(=O)(=O)c4ccc(Cl)cc4)cc3c2)c1C` shows Firefly, cmpd/DMSO repeat 1 of 10 or higher.
yes

Given `Cc1ccc(S(=O)(=O)c2cc3cc(C(=O)Nc4cccc(C)c4C)ccc3oc2=O)cc1` , state whether its Firefly, cmpd/DMSO repeat 1 is at least 10.
yes

State whether the measured Firefly, cmpd/DMSO repeat 1 reaches 10, counting equality as reaching it, for `COC(=O)c1ccc2oc(=O)c(S(=O)(=O)c3ccc(C)cc3)cc2c1`
yes

Please tell me: is the compound `COc1ccc(NC(=O)c2ccc3oc(=O)c(S(=O)(=O)c4ccccc4)cc3c2)cc1` at or over 10 in terms of Firefly, cmpd/DMSO repeat 1?
yes

Is the recorded value of Firefly, cmpd/DMSO repeat 1 equal to or greater than 10 for this compound? `COc1ccc(S(=O)(=O)c2cc3cc(F)cc(F)c3oc2=O)cc1`
yes

* * *

# assay_protocol: PPB
# Assay type: in vitro ADME
# condition_set: human, plasma
experimental_endpoint: recovery (%)
Reply with just the number (in %).

Entry under test: `COCCN[C@H]1CS(=O)(=O)C[C@@H]1S(=O)(=O)c1ccc(Cl)cc1` . Its recovery was 56.9

* * *

This listing pairs molecules with measured Firefly, cmpd/DMSO repeat 1.
# target_or_test_system: NR2F6 (Homo sapiens)
# Construct: expressed in transfected cells; also transient transfection
# Sequence (P10588 1-404): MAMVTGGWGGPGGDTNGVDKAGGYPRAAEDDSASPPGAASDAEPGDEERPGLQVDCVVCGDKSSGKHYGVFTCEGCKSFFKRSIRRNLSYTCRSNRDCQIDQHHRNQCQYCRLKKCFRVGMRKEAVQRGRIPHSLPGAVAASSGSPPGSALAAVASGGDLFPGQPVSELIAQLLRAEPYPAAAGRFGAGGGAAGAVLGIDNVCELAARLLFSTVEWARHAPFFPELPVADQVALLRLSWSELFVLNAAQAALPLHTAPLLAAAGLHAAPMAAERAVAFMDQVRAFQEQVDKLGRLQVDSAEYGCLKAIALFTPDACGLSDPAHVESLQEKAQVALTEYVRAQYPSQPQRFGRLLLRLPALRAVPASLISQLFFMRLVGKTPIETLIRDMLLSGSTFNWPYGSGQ
# assay_protocol: NR2F6 agonist screening, Firefly signal cmpd/DMSO
# Format: cell-based
# condition_set: first set screening, 10 μM, repeat 1

molecule: CCc1ccc(OCC(=O)Nc2cc(-c3nc4cc(C)ccc4o3)ccc2C)cc1 [Compound 24]
target_or_test_system: NR2F6 (Homo sapiens)
Firefly, cmpd/DMSO repeat 1: 2.0
//
molecule: COc1cc(Nc2c3c(nc4ccc(Cl)cc24)CCC3)cc(OC)c1OC [Compound C10]
target_or_test_system: NR2F6 (Homo sapiens)
Firefly, cmpd/DMSO repeat 1: 2.1
//
molecule: O=C(COc1ccccc1C(=O)N1CCOCC1)NCCc1ccccc1 [Compound 22]
target_or_test_system: NR2F6 (Homo sapiens)
Firefly, cmpd/DMSO repeat 1: 2.1
//
molecule: Cc1ccc(-c2nc3ccccc3c(=O)[nH]2)cc1 [Compound C3]
target_or_test_system: NR2F6 (Homo sapiens)
Firefly, cmpd/DMSO repeat 1: 2.0

Consider the additional molecule presented here.
Record COC(=O)c1ccc2oc(=O)c(S(=O)(=O)c3ccccc3)cc2c1 [Compound C11] . Reported Firefly, cmpd/DMSO repeat 1: 13.5

* * *

# fold induction at 2 µM listing for each entry below
# Tested on: Renilla_ERa
# assay_protocol: Renilla signal in ERα counterscreen (Renilla_ERa)
# Assay type: cell-based
# condition_set: Table 15; 2 uM; read-out: Renilla ERalpha transient, cmpd/DMSO (mean)
Kindly provide the number alone.

smiles_data: CCOC(=O)c1cnc2c(C)cc(C)cc2c1NCCCO
fold induction at 2 µM: 1.1

smiles_data: CCOC(=O)c1cnc2c(C)cc(C)cc2c1N1CCC(O)CC1
fold induction at 2 µM: 1

smiles_data: CCOC(=O)c1cnc2c(C)cc(C)cc2c1NCCCN1CCCC1
fold induction at 2 µM: 1.4

For this compound ( `CCOC(=O)c1cnc2c(C)cc(C)cc2c1N1CCC(N(C)C)CC1` ), measured fold induction at 2 µM is 1.1

Looking up `COc1cccc(-c2noc(Cn3nccc(Cl)c3=O)n2)c1` , I see its fold induction at 2 µM listed as 1.1

// fold induction at 2 µM lookup, compound = `Cc1ccc(NC(=O)c2noc3c2CC(C)(C)CC3)cc1C` , result: 1.1

The reported fold induction at 2 µM of the compound `Cc1ccc(NC(=O)c2n[nH]c3c2CCCCC3)cc1C` was 1.2

Just so you know, measured fold induction at 2 µM for `CCOC(=O)c1cnc2c(C)cc(C)cc2c1NCCCN` came out at 1.2

For reference, reported fold induction at 2 µM for `COc1cccc(-c2noc(Cn3ncccc3=O)n2)c1` stands at 1

Short answer for `COc1ccc(-c2noc(Cn3ncc4ccccc4c3=O)n2)cc1` : fold induction at 2 µM was 1.1

* * *

# target_or_test_system: NR2F6 (Homo sapiens, UniProt P10588)
# Construct: expressed in transfected cells; also transient transfection
# assay_protocol: NR2F6 agonist screening, Firefly signal cmpd/DMSO
# Format: cell-based
# condition_set: C11 analogs follow set (Tables 2-10), repeat 1
Listed here are compounds together with their documented Firefly, cmpd/DMSO repeat 1.
Respond using a number only.

In the examples that follow, each entry is paired with its recorded Firefly, cmpd/DMSO repeat 1.
smiles_data: Cc1cc(S(=O)(=O)c2cc3ccccc3oc2=O)ccc1F
reported_result: 7.6
--
smiles_data: Cc1ccc(NC(=O)c2ccc3oc(=O)c(S(=O)(=O)c4ccc(F)cc4)cc3c2)cc1
reported_result: 2.0
--
smiles_data: Cc1ccc(NC(=O)c2ccc3oc(=O)c(S(=O)(=O)c4ccc(Cl)cc4)cc3c2)c(C)c1
reported_result: 3.4
--
smiles_data: COc1ccc(NC(=O)c2ccc3oc(=O)c(S(=O)(=O)c4ccc(Cl)cc4)cc3c2)cc1
reported_result: 34.0
--
smiles_data: COc1ccc(S(=O)(=O)c2cc3cc(F)ccc3oc2=O)cc1
reported_result: 1.9
--
smiles_data: Cc1ccc(S(=O)(=O)c2cc3ccccc3oc2=O)cc1
reported_result: 2.0
--
smiles_data: O=c1oc2ccc(Cl)cc2cc1S(=O)(=O)c1ccccc1F
reported_result: 10.4
--
smiles_data: O=c1oc2cc(O)ccc2cc1S(=O)(=O)c1ccc(F)c(Cl)c1
reported_result: 1.2

Measured on NR2F6 (Homo sapiens, UniProt P10588), `COC(=O)c1ccc2oc(=O)c(S(=O)(=O)c3ccc(C)cc3)cc2c1` has a documented Firefly, cmpd/DMSO repeat 1 of 14.0
